Data origin, for the record: patent US7060678B2

# Tested on: PA1 (human ovary)
# Assay Overview: MTT cytotoxicity assay, PA1 cells
# Assay type: cell-based
# Settings: human, 48 hours, 1 nM
Starred links: 1 amine or outer side, 2 acyl side, 3 side chain; linkers in the order of their positions; H or OH if unused. Non-standard residues stand in square brackets, D forms with d. Residues, ends and D or L forms follow the SMILES beside them. 2Furoyl(5-aminomethyl) = O=C(c1ccc(CN[*:1])o1)[*:2]; X2 = O=C([C@@H]1CC[C@H](CN[*:1])O1)[*:2]; X1 = O=C(C1CCC(CN[*:1])O1)[*:2]

{"columns": ["Compound", "Percent Cytotoxicity, %"],
 "data": [
  ["CSCC[C@H](NC(=O)[C@@H](N)CC(C)C)C(=O)N[C@@H](Cc1ccc(O)cc1)C(=O)NCC1CCC(C(=O)N[C@@H](Cc2ccc(O)cc2)C(=O)N[C@@H](CC(C)C)C(=O)N[C@@H](CCCCN)C(=O)O)O1 (stereo partly drawn) [SEQ ID NO: 12, Leu-Met-Tyr-Saa3-Tyr-Leu-Lys] (H-LMY[X1]YLK-OH)", 20.2],
  ["CSCC[C@H](NC(=O)[C@@H](N)CC(C)C)C(=O)N[C@@H](Cc1ccc(O)cc1)C(=O)NC[C@H]1CC[C@@H](C(=O)N[C@@H](Cc2ccc(O)cc2)C(=O)N[C@@H](CC(C)C)C(=O)N[C@@H](CCCCN)C(=O)O)O1 [SEQ ID NO: 13, Leu-Met-Tyr-Saa4-Tyr-Leu-Lys] (H-LMY[X2]YLK-OH)", 44.0],
  ["CSCC[C@H](NC(=O)[C@@H](N)CC(C)C)C(=O)N[C@@H](Cc1ccc(O)cc1)C(=O)NC[C@H]1O[C@H](C(=O)N[C@H](C(=O)N[C@@H](Cc2ccc(O)cc2)C(=O)N[C@@H](CC(C)C)C(=O)N[C@@H](CCCCN)C(=O)O)[C@@H](C)O)[C@@H](OCc2ccccc2)[C@@H]1OCc1ccccc1 [SEQ ID NO: 3, Leu-Met-Tyr-Saa2-Thr-Tyr-Leu-Lys]", 16.8],
  ["CSCC[C@H](N)C(=O)NCC1CCC(C(=O)N[C@@H](Cc2ccc(O)cc2)C(=O)N[C@@H](CC(C)C)C(=O)O)O1 (stereo partly shown) [SEQ ID NO: 16, Met-Saa3-Tyr-Leu]", 24.0],
  ["CSCC[C@H](NC(=O)[C@@H](N)CC(C)C)C(=O)N[C@@H](Cc1ccc(O)cc1)C(=O)NCc1ccc(C(=O)N[C@@H](Cc2ccc(O)cc2)C(=O)N[C@@H](CC(C)C)C(=O)N[C@@H](CCCCN)C(=O)O)o1 [SEQ ID NO: 10, Leu-Met-Tyr-Saa1-Tyr-Leu-Lys] (H-LMY[2Furoyl(5-aminomethyl)]YLK-OH)", 37.5],
  ["CSCC[C@H](NC(=O)[C@@H](N)CC(C)C)C(=O)NCc1ccc(C(=O)N[C@@H](Cc2ccc(O)cc2)C(=O)N[C@@H](CC(C)C)C(=O)N[C@@H](CCCCN)C(=O)O)o1 [SEQ ID NO: 18, Leu-Met-Saa1-Tyr-Leu-Lys] (H-LM[2Furoyl(5-aminomethyl)]YLK-OH)", 18.3],
  ["CSCC[C@H](N)C(=O)NC[C@H]1CC[C@@H](C(=O)N[C@@H](Cc2ccc(O)cc2)C(=O)N[C@@H](CC(C)C)C(=O)O)O1 [SEQ ID NO: 17, Met-Saa4-Tyr-Leu]", 18.2]
]}

----------
# Tested on: ECV-304 (endothelial)
# Settings: ECV-304 cells; peptide 100 nM; 48 hours; NA = Not Active
Starred links: 1 amine or outer side, 2 acyl side, 3 side chain; linkers in the order of their positions; H or OH if unused. Non-standard residues stand in square brackets, D forms with d. Residues, ends and D or L forms follow the SMILES beside them. X2 = O=C([C@@H]1CC[C@H](CN[*:1])O1)[*:2]; X1 = O=C(C1CCC(CN[*:1])O1)[*:2]

{"columns": ["Molecule", "Tgt", "Measurement Unit", "Percent Cytotoxicity"],
 "data": [
  ["CSCC[C@H](NC(=O)[C@@H](N)CC(C)C)C(=O)N[C@@H](Cc1ccc(O)cc1)C(=O)NC[C@H]1CC[C@@H](C(=O)N[C@@H](Cc2ccc(O)cc2)C(=O)N[C@@H](CC(C)C)C(=O)N[C@@H](CCCCN)C(=O)O)O1 [SEQ ID NO: 13, Leu-Met-Tyr-Saa4-Tyr-Leu-Lys] (H-LMY[X2]YLK-OH)", "ECV-304 (endothelial)", "%", 18.0],
  ["CSCC[C@H](NC(=O)[C@@H](N)CC(C)C)C(=O)NCC1CCC(C(=O)N[C@H](C(=O)N[C@@H](Cc2ccc(O)cc2)C(=O)N[C@@H](CC(C)C)C(=O)N[C@@H](CCCCN)C(=O)O)[C@@H](C)O)O1 (stereo partly drawn) [SEQ ID NO: 8, Leu-Met-Saa3-Thr-Tyr-Leu-Lys] (H-LM[X1]TYLK-OH)", "ECV-304 (endothelial)", "%", 10.8],
  ["CSCC[C@H](NC(=O)[C@@H](N)CC(C)C)C(=O)N[C@@H](Cc1ccc(O)cc1)C(=O)NCC1CCC(C(=O)N[C@@H](Cc2ccc(O)cc2)C(=O)N[C@@H](CC(C)C)C(=O)N[C@@H](CCCCN)C(=O)O)O1 (stereo partly drawn) [SEQ ID NO: 12, Leu-Met-Tyr-Saa3-Tyr-Leu-Lys] (H-LMY[X1]YLK-OH)", "ECV-304 (endothelial)", "%", 27.9]
]}

----------
# Test system: HeP-2 (larynx)
# Assay Overview: MTT cytotoxicity assay, HeP-2 cells
# Assay type: cell-based, human
# Settings: human, 48 hours, 10 nM
Starred links: 1 amine or outer side, 2 acyl side, 3 side chain; linkers in the order of their positions; H or OH if unused. Non-standard residues stand in square brackets, D forms with d. Residues, ends and D or L forms follow the SMILES beside them. X2 = O=C([C@@H]1CC[C@H](CN[*:1])O1)[*:2]; X1 = O=C(C1CCC(CN[*:1])O1)[*:2]
Property Measured: Percent Cytotoxicity (%)

{"columns": ["Compound", "Tgt", "Measurement Unit", "Quantitative Readout"],
 "data": [
  ["CSCC[C@H](N)C(=O)NCC1CCC(C(=O)N[C@@H](Cc2ccc(O)cc2)C(=O)N[C@@H](CC(C)C)C(=O)O)O1 (stereo partly drawn)", "HeP-2 (larynx)", "%", 19.2],
  ["CSCC[C@H](NC(=O)[C@@H](N)CC(C)C)C(=O)N[C@@H](Cc1ccc(O)cc1)C(=O)NC[C@H]1O[C@H](C(=O)N[C@H](C(=O)N[C@@H](Cc2ccc(O)cc2)C(=O)N[C@@H](CC(C)C)C(=O)N[C@@H](CCCCN)C(=O)O)[C@@H](C)O)[C@@H](OCc2ccccc2)[C@@H]1OCc1ccccc1", "HeP-2 (larynx)", "%", 15.4],
  ["CSCC[C@H](NC(=O)[C@@H](N)CC(C)C)C(=O)N[C@@H](Cc1ccc(O)cc1)C(=O)NCC1CCC(C(=O)N[C@@H](Cc2ccc(O)cc2)C(=O)N[C@@H](CC(C)C)C(=O)N[C@@H](CCCCN)C(=O)O)O1 (stereo partly drawn) [SEQ ID NO: 12, Leu-Met-Tyr-Saa3-Tyr-Leu-Lys] (H-LMY[X1]YLK-OH)", "HeP-2 (larynx)", "%", 39.3],
  ["CSCC[C@H](NC(=O)[C@@H](N)CC(C)C)C(=O)N[C@@H](Cc1ccc(O)cc1)C(=O)NC[C@H]1CC[C@@H](C(=O)N[C@@H](Cc2ccc(O)cc2)C(=O)N[C@@H](CC(C)C)C(=O)N[C@@H](CCCCN)C(=O)O)O1 [SEQ ID NO: 13, Leu-Met-Tyr-Saa4-Tyr-Leu-Lys] (H-LMY[X2]YLK-OH)", "HeP-2 (larynx)", "%", 21.8],
  ["CSCC[C@H](N)C(=O)NCc1ccc(C(=O)N[C@@H](Cc2ccc(O)cc2)C(=O)N[C@@H](CC(C)C)C(=O)O)o1", "HeP-2 (larynx)", "%", 10.6],
  ["CSCC[C@H](N)C(=O)NC[C@H]1CC[C@@H](C(=O)N[C@@H](Cc2ccc(O)cc2)C(=O)N[C@@H](CC(C)C)C(=O)O)O1", "HeP-2 (larynx)", "%", 31.7]
]}

----------
# System: PTC (colon)
# Assay Overview: MTT cytotoxicity assay, PTC cells
# Format: cell-based, human
# Settings: human, 48 hours, 1 nM
# Description: The following cell lines were used.
Starred links: 1 amine or outer side, 2 acyl side, 3 side chain; linkers in the order of their positions; H or OH if unused. Non-standard residues stand in square brackets, D forms with d. Residues, ends and D or L forms follow the SMILES beside them. 2Furoyl(5-aminomethyl) = O=C(c1ccc(CN[*:1])o1)[*:2]; X2 = O=C([C@@H]1CC[C@H](CN[*:1])O1)[*:2]; X1 = O=C(C1CCC(CN[*:1])O1)[*:2]
Entries and their Percent Cytotoxicity values follow.
Property Measured: Percent Cytotoxicity (%)

{"columns": ["Compound", "Tgt", "Property Measured", "Quantitative Readout"],
 "data": [
  ["CSCC[C@H](N)C(=O)NC[C@H]1CC[C@@H](C(=O)N[C@@H](Cc2ccc(O)cc2)C(=O)N[C@@H](CC(C)C)C(=O)O)O1", "PTC (colon)", "Percent Cytotoxicity", 12.0],
  ["CSCC[C@H](NC(=O)[C@@H](N)CC(C)C)C(=O)N[C@@H](Cc1ccc(O)cc1)C(=O)NC[C@H]1CC[C@@H](C(=O)N[C@@H](Cc2ccc(O)cc2)C(=O)N[C@@H](CC(C)C)C(=O)N[C@@H](CCCCN)C(=O)O)O1 [SEQ ID NO: 13, Leu-Met-Tyr-Saa4-Tyr-Leu-Lys] (H-LMY[X2]YLK-OH)", "PTC (colon)", "Percent Cytotoxicity", 28.5],
  ["CSCC[C@H](N)C(=O)NCc1ccc(C(=O)N[C@@H](Cc2ccc(O)cc2)C(=O)N[C@@H](CC(C)C)C(=O)O)o1", "PTC (colon)", "Percent Cytotoxicity", 28.9],
  ["CSCC[C@H](NC(=O)[C@@H](N)CC(C)C)C(=O)N[C@@H](Cc1ccc(O)cc1)C(=O)NCC1CCC(C(=O)N[C@@H](Cc2ccc(O)cc2)C(=O)N[C@@H](CC(C)C)C(=O)N[C@@H](CCCCN)C(=O)O)O1 (stereo partly drawn) [SEQ ID NO: 12, Leu-Met-Tyr-Saa3-Tyr-Leu-Lys] (H-LMY[X1]YLK-OH)", "PTC (colon)", "Percent Cytotoxicity", 12.7],
  ["CSCC[C@H](NC(=O)[C@@H](N)CC(C)C)C(=O)NCc1ccc(C(=O)N[C@@H](Cc2ccc(O)cc2)C(=O)N[C@@H](CC(C)C)C(=O)N[C@@H](CCCCN)C(=O)O)o1 [SEQ ID NO: 18, Leu-Met-Saa1-Tyr-Leu-Lys] (H-LM[2Furoyl(5-aminomethyl)]YLK-OH)", "PTC (colon)", "Percent Cytotoxicity", 19.0],
  ["CSCC[C@H](NC(=O)[C@@H](N)CC(C)C)C(=O)N[C@@H](Cc1ccc(O)cc1)C(=O)NCc1ccc(C(=O)N[C@@H](Cc2ccc(O)cc2)C(=O)N[C@@H](CC(C)C)C(=O)N[C@@H](CCCCN)C(=O)O)o1 [SEQ ID NO: 10, Leu-Met-Tyr-Saa1-Tyr-Leu-Lys] (H-LMY[2Furoyl(5-aminomethyl)]YLK-OH)", "PTC (colon)", "Percent Cytotoxicity", 30.5]
]}
